Data origin, for the record: ChEMBL document CHEMBL4680222

Measurement target: NAD-dependent protein deacetylase sirtuin-2 (Homo sapiens)
Sequence (whole entry): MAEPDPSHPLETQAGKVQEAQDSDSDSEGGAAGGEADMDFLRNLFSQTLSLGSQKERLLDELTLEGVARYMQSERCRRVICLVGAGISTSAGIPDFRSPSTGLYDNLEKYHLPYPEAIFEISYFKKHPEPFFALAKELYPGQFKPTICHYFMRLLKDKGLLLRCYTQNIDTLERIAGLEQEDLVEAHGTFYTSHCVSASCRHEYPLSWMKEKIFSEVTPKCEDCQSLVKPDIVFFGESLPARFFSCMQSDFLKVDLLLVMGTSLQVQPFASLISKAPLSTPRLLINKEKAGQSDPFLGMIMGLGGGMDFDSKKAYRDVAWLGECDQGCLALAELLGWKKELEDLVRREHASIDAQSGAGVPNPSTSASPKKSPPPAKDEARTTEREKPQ
Test protocol: Substrate activity at human N-terminal His-tagged SIRT2 (56 to 356 residues) expressed in Escherichia coli at 0.5 uM measured after 2 hrs in presence of NAD+ and trypsin by fluorescence assay
*1 amine or outer side, *2 acyl side, *3 side chain or, on linkers, in order; H or OH if unused. Where a SMILES comes first, the peptide text is derived from it. The star is where a group is joined. AMC = Cc1cc(=O)oc2cc(N*)ccc12; Suc = O=C(CCC(=O)[*:2])[*:1]; Decanoyl = CCCCCCCCCC(=O)*
Quantity kind: Activity (RFU)
Give the quantity in RFU, number only.

Report Activity for CC(=O)N[C@@H](Cc1cnc[nH]1)C(=O)N[C@@H](Cc1ccccc1)C(=O)N[C@@H](CO)C(=O)N[C@@H](CCCCNC(=O)CCC(=O)O)C(=O)Nc1ccc2c(C)cc(=O)oc2c1 (Ac-HFSK(Suc)-{AMC}) please.
0.16

Name the reported Activity value associated with the molecule CC(=O)NCCCC[C@H](NC(=O)[C@H](CO)NC(=O)[C@H](Cc1ccccc1)NC(=O)[C@H](CC(=O)O)NC(C)=O)C(=O)Nc1ccc2c(C)cc(=O)oc2c1 (Ac-DFSK(Ac)-{AMC})
0.31

Consider the molecule CCCCCCCCCC(=O)NCCCC[C@H](NC(=O)[C@H](CCCCN)NC(=O)[C@@H]1CCCN1C(=O)[C@H](CC(N)=O)NC(C)=O)C(=O)Nc1ccc2c(C)cc(=O)oc2c1 (Ac-NPKK(Decanoyl)-{AMC}) and give its measured Activity.
0.29

Which Activity is listed for CC[C@H](C)[C@H](NC(C)=O)C(=O)N[C@@H](CCCNC(=N)N)C(=O)N[C@H](C(=O)N[C@@H](CCCCNC(=O)CCC(=O)O)C(=O)Nc1ccc2c(C)cc(=O)oc2c1)[C@@H](C)CC (Ac-IRIK(Suc)-{AMC}) ?
0.21

Which measured Activity value corresponds to CC(=O)NCCCC[C@H](NC(=O)[C@H](CCCCN)NC(=O)[C@H](Cc1cnc[nH]1)NC(=O)[C@H](CCCNC(=N)N)NC(C)=O)C(=O)Nc1ccc2c(C)cc(=O)oc2c1 (Ac-RHKK(Ac)-{AMC}) ?
0.37

----------
Activity for assorted compounds
Measurement target: NAD-dependent protein deacylase sirtuin-5, mitochondrial (Homo sapiens) (UniProt Q9NXA8)
Sequence (Q9NXA8 37-310 limits assumed): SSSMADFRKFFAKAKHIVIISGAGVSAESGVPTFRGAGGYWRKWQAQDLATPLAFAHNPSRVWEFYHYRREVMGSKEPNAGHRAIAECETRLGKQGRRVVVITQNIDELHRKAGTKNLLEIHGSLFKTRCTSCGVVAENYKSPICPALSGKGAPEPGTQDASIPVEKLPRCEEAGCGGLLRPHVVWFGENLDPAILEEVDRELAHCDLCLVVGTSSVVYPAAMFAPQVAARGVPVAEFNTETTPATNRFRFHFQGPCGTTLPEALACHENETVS
Test protocol: Substrate activity at human N-terminal His-tagged SIRT5 (34 to 302 residues) expressed in Escherichia coli at 5 uM measured after 2 hrs in presence of NAD+ and trypsin by fluorescence assay
*1 amine or outer side, *2 acyl side, *3 side chain or, on linkers, in order; H or OH if unused. Where a SMILES comes first, the peptide text is derived from it. The star is where a group is joined. AMC = Cc1cc(=O)oc2cc(N*)ccc12; Suc = O=C(CCC(=O)[*:2])[*:1]; Decanoyl = CCCCCCCCCC(=O)*

Compound: CC[C@H](C)[C@H](NC(C)=O)C(=O)N[C@@H](CCCNC(=N)N)C(=O)N[C@H](C(=O)N[C@@H](CCCCNC(=O)CCC(=O)O)C(=O)Nc1ccc2c(C)cc(=O)oc2c1)[C@@H](C)CC (Ac-IRIK(Suc)-{AMC})
Obs value: 0.82 RFU

Need Activity of CCCCCCCCCC(=O)NCCCC[C@H](NC(=O)[C@H](CC(=O)O)NC(=O)[C@@H](NC(=O)[C@H](CCC(=O)O)NC(C)=O)[C@@H](C)O)C(=O)Nc1ccc2c(C)cc(=O)oc2c1 (Ac-ETDK(Decanoyl)-{AMC}) , thanks.
0.42 RFU
